Values were extracted from patent US8835440B2.

Each entry below lists one item and its recorded Ki value.
- target_system: CCR2 (Homo sapiens, UniProt P41597)
- Construct: Membranes were prepared from THP-1 cells; endogenous in cells
- test_name: CCR2 receptor membrane binding assay ([125I]MCP-1, THP-1 cell membranes, SPA beads)
- experimental_context: dissociation constant hKi; [125I]MCP-1 binding to THP-1 membranes

compound | Ki, nM
CCc1c(NCc2cccc(-c3ccccc3)c2)ncnc1C(=O)N1CCC(N2CCOCC2)CC1 [Example 276] | 1840
Cc1c(NCc2ccc(Cl)c(Cl)c2)ncnc1C(=O)N1CCC(N2CCC(F)(F)CC2)CC1 [Example 244] | 366
CCc1c(NCc2cccc(-c3ccccc3)c2)ncnc1C(=O)N1CCC(N2CCC(O)CC2)CC1 [Example 282] | 1530

====

- target_system: CCR2 (Homo sapiens, UniProt P41597)
- Construct: Membranes were prepared from THP-1 cells; endogenous in cells
- Sequence (P41597 1-360 isoform P41597-2): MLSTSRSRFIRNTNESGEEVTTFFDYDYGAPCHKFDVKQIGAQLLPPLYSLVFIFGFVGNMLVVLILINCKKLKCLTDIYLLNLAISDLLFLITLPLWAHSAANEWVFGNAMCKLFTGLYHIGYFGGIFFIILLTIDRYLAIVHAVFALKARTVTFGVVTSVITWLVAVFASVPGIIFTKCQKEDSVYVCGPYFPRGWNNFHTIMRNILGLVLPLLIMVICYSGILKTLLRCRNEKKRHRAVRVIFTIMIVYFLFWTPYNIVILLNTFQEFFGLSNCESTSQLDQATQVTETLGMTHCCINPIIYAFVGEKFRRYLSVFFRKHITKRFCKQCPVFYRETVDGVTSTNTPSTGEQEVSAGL
- test_name: CCR2 receptor membrane binding assay ([125I]MCP-1, THP-1 cell membranes, SPA beads)
- experimental_context: dissociation constant hKi; [125I]MCP-1 binding to THP-1 membranes
- Description: The above exemplary substances have been tested for binding to CCR2 using a binding assay as outlined herein below: THP-1 cells (human acute monocytic leukaemia cells) were cultured under standardized conditions at 37° C. and 5% CO2 in a humidified incubator. […] Perkin Elmer NEX 332 Jod 125 MCP-1, Stock: 2200 Ci/mmol solved in 2000 μl assay buffer, stored at −20° C. […] Bound radioactivity was determined by scintillation counter after 8 h. […]
measure: log10 of Ki (log10 of the value in µM)

molecule | result_number
Cc1c(NCc2ccc(C(F)(F)F)c(Cl)c2)ncnc1C(=O)N1CCC(N2CCC(N(C)S(C)(=O)=O)CC2)CC1 | -1.42
CO[C@@H]1CCN(C2CCN(C(=O)c3ncnc(NCc4ccc(C(C)(C)C)cc4)c3C)CC2)C1 | -0.32
Cc1c(NCc2ccc(Cl)c(Cl)c2)ncnc1C(=O)N1CCC(N2CCCC(F)C2)CC1 (stereo not drawn) | -0.71
Cc1c(NCc2ccc(Cl)c(F)c2)ncnc1C(=O)N1CCC(N2CCOCC2)CC1 | -0.30
Cc1c(NCC2(c3ccccc3)CCCCC2)ncnc1C(=O)N1CCC(N2CCC(N(C)S(C)(=O)=O)CC2)CC1 [Example 159t] | 0.08
Cc1c(NCCc2ccc(Cl)c(Cl)c2)ncnc1C(=O)N1CCC(N2CCOCC2)CC1 | -0.72
Cc1ccc(C2CCC(CNc3ncnc(C(=O)N4CCC(N5CCC(N(C)S(C)(=O)=O)CC5)CC4)c3C)O2)cc1 (stereo not drawn) [Example 159cb] | -1.41
Cc1c(NCCc2ccc(Cl)c(Cl)c2)ncnc1C(=O)N1CCC(N2CCC(C(N)=O)CC2)CC1 | -0.13
Cc1c(NC[C@@H]2CCC[C@@H](c3ccccc3)C2)ncnc1C(=O)N1CCC(N2CCC(O)CC2)CC1 | -1.04
